# Experimental Details: Bioavailability study in rats (i.v. and p.o.)
# Assay type: in vivo
# Cond: male, SD, rat, plasma, po, p.o. 3 mg/kg, 0.083 h
# Protocol: Male SD rats (200-240 g) were obtained from Beijing Vital River Laboratory Animal Technology Co., Ltd. Animals were housed in a temperature- and humidity-controlled room with a 12 h light/dark cycle. […] Pharmacokinetic parameters were calculated by the noncompartmental method using WinNonlin 7.0 (Pharsight, CA). The area under the plasma concentration time curve (AUC) from time 0 to the last time point with a measurable concentration (AUC0-t) was calculated by trapezoidal method. […]
Value Type: concentration at 0.083 h (ng/mL)
Form entry: value (ng/mL) — number only.

**Q:** Record request: concentration at 0.083 h value, item CCN(Cc1ccccn1)C(=O)Cc1c(-c2ccc(Cl)c(Cl)c2)nc2cc(C)ccn12
**A:** 18.9

Source: paper PMC7732531
